Tested On: Secreted aspartic protease 2 (Candida albicans)
Test Description: Inhibition of Candida albicans SAP2 at 10 uM by spectrophotometry relative to pepstatin A
Reported Endpoint: inhibition
For clarity, give the value followed by its unit.

# input Can you share its inhibition? I mean this molecule: CCOC(=O)C1CCN(C(=O)[C@@H]2O[C@@H]3O[C@H]2C(=O)N(Cc2ccccc2)[C@H]3Cc2ccccc2)CC1
# output 87%

# input Now consider O=C(NCC(F)(F)F)[C@@H]1O[C@H]2CN(Cc3ccccc3)C(=O)[C@@H]1O2 and answer again.
# output 87%

# input Lookup CC(NC(=O)[C@@H]1O[C@@]2(c3ccccc3)CN(C(c3ccccc3)c3ccccc3)C(=O)[C@@H]1O2)c1ccccc1 (stereo partly drawn)
# output 0%

# input # iterate: CC(C)CNC(=O)[C@@H]1O[C@H]2CN(Cc3ccccc3)C(=O)[C@@H]1O2
# output 18%

# input Repeat with NC(=O)C1O[C@H]2CN(Cc3ccccc3)C(=O)[C@@H]1O2 (single isomer, unassigned)
# output 18%

# input Also CCCCCNC(=O)[C@@H]1O[C@H]2CN(Cc3ccccc3)C(=O)[C@@H]1O2 ?
# output 87%

# input C#CCNC(=O)[C@@H]1O[C@@]2(c3ccccc3)CN(C(c3ccccc3)c3ccccc3)C[C@@H]1O2 ?
# output 12%

# input Can you handle CC(C)C[C@@H](CO)NC(=O)[C@@H]1O[C@H]2CN(Cc3ccccc3)C(=O)[C@@H]1O2 next?
# output 61%

# input Moving on to O=C([C@@H]1O[C@@]2(c3ccccc3)CN(C(c3ccccc3)c3ccccc3)C[C@@H]1O2)N1CCCCC1
# output 23%

# input Again, but for CCCNC(=O)[C@@H]1O[C@@]2(c3ccccc3)CN(C(c3ccccc3)c3ccccc3)C[C@@H]1O2
# output 12%

# input Note, next up: O=C([C@@H]1O[C@H]2CN(Cc3ccccc3)C(=O)[C@@H]1O2)N1CCN(CCO)CC1
# output 92%

# input Continue with O=C(NC1CC1)[C@@H]1O[C@H]2CN(Cc3ccccc3)C[C@@H]1O2
# output 13%

# input // next record O=C([C@@H]1O[C@H]2CN(Cc3ccccc3)C[C@@H]1O2)N1CCCCC1
# output 6%

# input Same for CCCCNC(=O)[C@@H]1O[C@@H]2O[C@H]1C(=O)N(Cc1ccccc1)[C@H]2Cc1ccccc1
# output 42%

# input Now the same for O=C([C@@H]1O[C@@]2(c3ccccc3)CN(C(c3ccccc3)c3ccccc3)C(=O)[C@@H]1O2)N1CCN(CCO)CC1
# output 19%

# input One more molecule: CN(CCN)C(=O)[C@@H]1O[C@H]2CN(Cc3ccccc3)C[C@@H]1O2
# output 6%

# input Thanks! And O=C([C@@H]1O[C@@H]2O[C@H]1C(=O)N(Cc1ccccc1)[C@H]2Cc1ccccc1)N1CCCNCC1 ?
# output 87%

# input Proceed to O=C([C@@H]1O[C@@H]2O[C@H]1C(=O)N(Cc1ccccc1)[C@H]2Cc1ccccc1)N1CCN(CCO)CC1
# output 40%
